Catalogue of Calcium flux IC50 (nM); 10 nM hIP-10; hCXCR3 L1.2 cells readings, one per entry.
- Assayed system: T1, recombinant human IP-10 (hIP-10) (human, UniProt P02778 22-98)
- T1 sequence (looked up): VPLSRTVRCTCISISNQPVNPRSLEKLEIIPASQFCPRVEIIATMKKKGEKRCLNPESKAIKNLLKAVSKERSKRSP
- Run description: cell-based or functional assay
Give the quantity in nM, number only.

CC21R3P1_E7, scFv format (scFv) QLVESGGGVVQPGRSLRLSCAASGFTFSTYGMHWVRQAPGKGLEWVAVISYDGGTKYYADSVKGRFTISRDNSMKTLYLQMNSLRTEDTAVYYCAKDLGDLPPGLDYWGQGTMVTVSSQSVLTQPPSASGTPGQRVTISCSGSSSNIGSNTVNWYQQLPGAAPKLLIYTNNQRPSGVPDRFSGSKSGTSASLAISGLQSEDEADYYCAAWDDSLNGNVVFGGGTKVTVL : 250

API: the following record is the query input.
Form field: reported Calcium flux IC50 (nM); 10 nM hIP-10; hCXCR3 L1.2 cells of CB21R3P1_F1, scFv format (scFv) QVQLVESGGGVVRPGRSLRLSCAASGFTFSSYGMHWVRQAPGKGLEWVAVISYDGSIKYYADSVKGRFTISRDNSKNTLYLQMNSLRAEDTAIYYCARVMGTDPHSYYYMDVWGKGTLVTVSSSSELTQDPAVSVALGQTVRITCQGDSLRSYYASWYQRKPGQAPVLVIYGKNNRPSGIPDRFSGSSSGNTASLTITGAQAEDEADYYCNSRDSSGNHVLFGGGTKLTVL
36
